# System: SERT
# Protocol text: Baboon PET imaging: brain uptake, kinetic analysis and SERT parameters
# Assay type: in vivo
# Condition description: last scan 90 minutes; baboons, mean ± SD of four experiments
I'd be grateful if you could share measured Regional activity wash-out: % decrease from peak to last scan, Thalamus for these entries.
Give the number; % is assumed, so skip it.

Asked: Which Regional activity wash-out: % decrease from peak to last scan, Thalamus is reported for this compound? CN([11CH3])Cc1ccccc1Sc1ccc(CF)cc1N [[^11C]AFM]
Given back: 18

Asked: Which Regional activity wash-out: % decrease from peak to last scan, Thalamus is reported for this compound? [11CH3]Sc1ccc([C@H]2CN3CCC[C@H]3c3ccccc32)cc1 [[^11C]McN 5652]
Given back: 12

Asked: Which Regional activity wash-out: % decrease from peak to last scan, Thalamus is reported for this compound? CN(C)Cc1ccccc1Sc1ccc(Br)cc1N [[^11C]DAPA]
Given back: 3

Asked: Which Regional activity wash-out: % decrease from peak to last scan, Thalamus is reported for this compound? CN(C)Cc1ccccc1Sc1ccc(C#N)cc1N [[^11C]DASB]
Given back: 36

Asked: Which Regional activity wash-out: % decrease from peak to last scan, Thalamus is reported for this compound? CN(C)Cc1ccccc1Sc1ccc(I)cc1N [[^11C]ADAM]
Given back: 12
